Species: Homo sapiens
assay-notes: To identify inhibition of the IFN signalling (Jak-Stat) pathway via expression of an eGFP reporter gene under the control of an IFN-stimulated response element (ISRE) containing MxA promoter.
Assay type: functional
Set-up: scale not given: direction of the effect not stated beside the values
condition: 30 µM
measured-attribute: Percent Effect (%)
Only the number, expressed in %, is required.

Illustrative cases are given below, each with its answer.
{"columns": ["compound", "result"],
 "data": [
  ["Cc1ccccc1CN1CCN(Cc2nccn2C)CC1", 16.1],
  ["O=C(Nc1nccs1)NC1CCN(Cc2ccccc2)C1 (configuration not stated)", -11.6],
  ["COc1cc(CN(C)C(=O)Cc2c(C)nn(C)c2C)ccc1OC(F)F", 55.5],
  ["CCc1cccc(N2CCC(NC(=O)c3ccc(=O)[nH]n3)CC2)c1", 21]
]}

[Q] Return value of Percent Effect for input CCNC(=O)c1ccc(N2CCCC(c3nccn3C(C)C)C2)nc1 (configuration not stated) , no commentary.
[A] 6.3

[Q] Return value of Percent Effect for input Cn1ccc(CN2CCC(CO)CC2)cc1=O , no commentary.
[A] 26.1

[Q] Return value of Percent Effect for input Cc1nc(CC(=O)N2CCCCC2c2ccn3ccnc3n2)cs1 (configuration not stated) , no commentary.
[A] 7.12

[Q] Return value of Percent Effect for input O=C(c1coc(COc2cccc(F)c2)n1)N1CC[C@H](O)[C@@H](O)C1 , no commentary.
[A] 7.51

[Q] Return value of Percent Effect for input CN1CCOC(CNC(=O)Cc2ccccc2F)C1 (configuration not stated) , no commentary.
[A] -18.4

---

system: Sialic acid-binding Ig-like lectin 9 (Homo sapiens)
assay-notes: Hs-Siglec9 ALPHAscreen SOP 20170721
Design: scale not given: direction of the effect not stated beside the values
condition: 10 µM
measured-attribute: Percent Effect (%)
Only the number, expressed in %, is required.

{"columns": ["compound", "system", "u", "Percent Effect"],
 "data": [
  ["CN1CCc2onc(CNc3ncccn3)c2C1", "Sialic acid-binding Ig-like lectin 9 (Homo sapiens)", "%", -6.27]
]}

[Q] Return value of Percent Effect for input O=C(NCCCc1ccncc1)C1CCCN(Cc2ccco2)C1 (stereo unspecified) , no commentary.
[A] -5.72

---

system: Arginase-2, mitochondrial (Homo sapiens) (UniProt P78540)
Sequence (P78540 whole entry): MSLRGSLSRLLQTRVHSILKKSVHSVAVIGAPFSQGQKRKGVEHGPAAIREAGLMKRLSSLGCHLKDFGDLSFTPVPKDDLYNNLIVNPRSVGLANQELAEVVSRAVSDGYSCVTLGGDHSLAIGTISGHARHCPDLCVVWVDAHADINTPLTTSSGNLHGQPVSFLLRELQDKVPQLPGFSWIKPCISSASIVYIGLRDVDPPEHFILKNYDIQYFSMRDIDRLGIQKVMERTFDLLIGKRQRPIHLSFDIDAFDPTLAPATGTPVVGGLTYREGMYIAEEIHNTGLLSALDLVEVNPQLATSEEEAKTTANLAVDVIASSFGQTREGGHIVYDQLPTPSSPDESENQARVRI
assay-notes: in vitro enzyme assay to detect the production of urea directly proportional to the activity of Arginase II; also: in the data most compounds retested in dose-response had high values
Format: functional
Set-up: scale not given: direction of the effect not stated beside the values
condition: 30 µM
measured-attribute: Percent Effect
Form field: result (number plus unit)

[Q] Recall the reported Percent Effect of Cc1nc(N)sc1C(=O)N1CCCC(c2nccn2CCCN(C)C)C1 (centres undefined) on Arginase-2, mitochondrial (Homo sapiens) (UniProt P78540) and write it down.
[A] 9.19%

---

system: Protein translocase subunit SecA (Escherichia coli (strain K12))
assay-notes: Assay to Identify E. coli SecA ATPase Inhibitors
Format: functional
Design: scale not given: direction of the effect not stated beside the values
condition: 30 µM
Potency and affinity values are given separately.
measured-attribute: Percent Effect (%)
Only the number, expressed in %, is required.

Illustrative cases are given below, each with its answer.
{"columns": ["compound", "system", "u", "Percent Effect"],
 "data": [
  ["COCCNC(=O)c1cc(S(=O)(=O)N2CCCCC2)cs1", "Protein translocase subunit SecA (Escherichia coli (strain K12))", "%", -1.54],
  ["CC(NC(=O)Cc1cccs1)c1nnc2n1CCCCC2 (configuration not stated)", "Protein translocase subunit SecA (Escherichia coli (strain K12))", "%", -5.37],
  ["CCc1nc(C2CCCN2C(=O)c2nccnc2N)no1 (configuration not stated)", "Protein translocase subunit SecA (Escherichia coli (strain K12))", "%", -2.75],
  ["c1cnnc(N2CCCC2CNCc2nc(-c3ccsc3)no2)c1 (configuration not stated)", "Protein translocase subunit SecA (Escherichia coli (strain K12))", "%", -4.07],
  ["c1csc(N2CCCN(Cc3nc(C4CC4)no3)CC2)n1", "Protein translocase subunit SecA (Escherichia coli (strain K12))", "%", -5.91],
  ["Cc1cc(C)n(-c2cc(N3CCN(C(=O)C(C)(C)C)CC3)nc(C)n2)n1", "Protein translocase subunit SecA (Escherichia coli (strain K12))", "%", -2.73]
]}

[Q] Return value of Percent Effect for input O=C(Cc1cccs1)N1CC[C@H]2[C@@H]1CCC(=O)N2c1cccnc1 , no commentary.
[A] -2.81

[Q] Return value of Percent Effect for input Cc1cc(C)n(CC2CCCN2C(=O)c2ccc(C(N)=O)cn2)n1 (configuration not stated) , no commentary.
[A] -6.82
